- measurement.target: HDAC5 (Homo sapiens, UniProt Q9UQL6)
- Sequence (Q9UQL6 whole entry): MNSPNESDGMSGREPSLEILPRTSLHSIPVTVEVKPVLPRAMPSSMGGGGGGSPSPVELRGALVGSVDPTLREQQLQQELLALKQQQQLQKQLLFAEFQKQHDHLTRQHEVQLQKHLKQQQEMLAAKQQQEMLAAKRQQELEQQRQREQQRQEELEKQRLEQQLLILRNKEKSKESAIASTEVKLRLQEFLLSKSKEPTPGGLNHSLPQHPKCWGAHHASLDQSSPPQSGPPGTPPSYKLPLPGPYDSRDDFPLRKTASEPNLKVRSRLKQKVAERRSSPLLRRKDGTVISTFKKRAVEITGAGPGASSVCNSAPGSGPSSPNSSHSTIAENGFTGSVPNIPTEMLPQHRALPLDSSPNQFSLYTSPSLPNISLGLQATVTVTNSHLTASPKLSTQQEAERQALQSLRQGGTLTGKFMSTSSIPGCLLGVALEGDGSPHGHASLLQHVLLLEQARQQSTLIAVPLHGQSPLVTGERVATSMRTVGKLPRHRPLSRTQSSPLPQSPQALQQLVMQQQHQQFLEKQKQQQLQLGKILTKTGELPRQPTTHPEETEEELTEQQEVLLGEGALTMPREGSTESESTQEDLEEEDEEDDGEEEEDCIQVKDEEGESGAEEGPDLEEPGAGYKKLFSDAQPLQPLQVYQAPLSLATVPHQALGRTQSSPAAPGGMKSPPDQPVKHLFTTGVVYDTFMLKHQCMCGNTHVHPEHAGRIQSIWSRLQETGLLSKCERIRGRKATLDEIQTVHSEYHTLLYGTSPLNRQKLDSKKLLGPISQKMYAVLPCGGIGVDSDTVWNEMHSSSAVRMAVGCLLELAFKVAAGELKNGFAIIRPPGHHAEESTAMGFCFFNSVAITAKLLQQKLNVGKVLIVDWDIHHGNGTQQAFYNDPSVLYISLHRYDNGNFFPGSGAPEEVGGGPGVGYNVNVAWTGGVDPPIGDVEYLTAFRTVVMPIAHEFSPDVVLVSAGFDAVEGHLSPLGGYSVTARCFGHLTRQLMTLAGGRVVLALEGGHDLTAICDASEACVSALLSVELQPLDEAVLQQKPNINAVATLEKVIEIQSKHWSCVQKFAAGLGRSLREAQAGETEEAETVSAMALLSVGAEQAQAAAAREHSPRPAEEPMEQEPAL
- protocol.notes: Kinetic HDAC enzyme inhibition assay, HDAC5
- protocol.conditions: recombinant HDAC
readout.type: IC50 (µM)

{"compound": "COC(c1ccc(F)cc1)(c1ccc(F)cc1)c1ccc(C(=O)NCCCCCCC(=O)NO)cc1 [ACY-257]", "readout.type": "IC50", "unit": "µM", "comparison.symbol": "=", "test.value": 8.2}
{"compound": "O=C(CCCCCCNC(=O)c1ccc(C(O)(c2ccccn2)c2ccccn2)cc1)NO [ACY-251]", "readout.type": "IC50", "unit": "µM", "comparison.symbol": "=", "test.value": 5.9}
{"compound": "Cc1ccccc1N(c1ccccc1)c1ncc(C(=O)NCCCCCCC(=O)NO)cn1 [ACY-216]", "readout.type": "IC50", "unit": "µM", "comparison.symbol": ">", "test.value": 10}
{"compound": "O=C(NO)c1cnc(NC2(c3ccccc3)CC2)nc1 [ACY-738]", "readout.type": "IC50", "unit": "µM", "comparison.symbol": "=", "test.value": 0.882}
